# tgt: human α7 nicotinic acetylcholine receptor (α7 nAChR) (Homo sapiens)
# Sequence (P36544 23-502): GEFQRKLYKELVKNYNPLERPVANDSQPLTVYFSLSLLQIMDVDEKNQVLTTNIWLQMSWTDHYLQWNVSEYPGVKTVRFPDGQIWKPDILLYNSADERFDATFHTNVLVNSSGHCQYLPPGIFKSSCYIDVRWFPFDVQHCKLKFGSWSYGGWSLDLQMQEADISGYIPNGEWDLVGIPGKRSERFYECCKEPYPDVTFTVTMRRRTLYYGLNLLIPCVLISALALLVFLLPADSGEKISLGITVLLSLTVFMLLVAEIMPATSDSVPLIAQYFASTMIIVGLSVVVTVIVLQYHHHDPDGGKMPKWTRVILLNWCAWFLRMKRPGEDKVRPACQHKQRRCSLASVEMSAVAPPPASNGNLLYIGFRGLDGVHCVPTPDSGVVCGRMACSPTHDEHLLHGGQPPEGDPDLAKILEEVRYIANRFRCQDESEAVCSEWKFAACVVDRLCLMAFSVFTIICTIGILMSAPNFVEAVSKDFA
# experimentalProtocol: Automated patch-clamp electrophysiology functional assay (Assay A)
# Format: cell-based
# conditionContext: HEK cell line stably expressing human RIC-3 and human α7; IonFlux HT whole-cell population patch; 40 μM acetylcholine; read-out: α7 nAChR Potency
observedProperty: EC50

compoundStructure	observedProperty	recordedMeasurement
NS(=O)(=O)c1ccc([C@@H]2C[C@H]2c2nc3ccccc3o2)cc1	EC50	100 to 500 nM
NS(=O)(=O)c1ccc([C@@H]2C[C@H]2c2ncc3ccccc3n2)cc1	EC50	100 to 500 nM
CC1(C)OC([C@H]2[C@H](c3ccc(S(N)(=O)=O)cc3)C2(F)F)=Nc2ccccc21	EC50	500 to 5000 nM
NS(=O)(=O)c1ccc([C@@H]2C[C@H]2c2nc3ccc(F)cc3o2)cc1	EC50	≤ 100 nM
